Test system: P388 leukemia ip, CD2F1 mice, survival T/C
testDetails: NCI In Vivo Anticancer Drug Screen. Data for tumor model P388 Leukemia (intraperitoneal) in CD2F1 (CDF1) mice
settings: endpoint: median survival time; dose: 100.0 mg/kg/injection; schedule: Q01DX009 (ip); vehicle: Klucel (hydroxypropylcellulose) (HPC); higher = longer survival
Procedure: The antitumor activity of compounds was measured in mice bearing transplantable tumors. Survival or tumor size were measured and the results are expressed as the measurement made in the treated group (T) divided by the measurement made in the vehicle treated control group (C). The tumor model used in this assay is P388 Leukemia (intraperitoneal) in CD2F1 (CDF1) mice
Toxic doses and inconclusive results are not listed.
Listing of entries alongside the reported T/C.
testReadout: T/C

1. CCOC=Nc1c(N)ncnc1Cl :: 102 % of control
2. COc1ccc(NC(CCN2CCN(CCC(=NC(C)(C)C)Nc3ccc(OC)cc3)CC2)=NC(C)(C)C)cc1 :: 110 % of control
3. Cn1c(N2CCN(CCO)CC2)nc2c1c(=O)n(CC(O)CN1CCN(CCO)CC1)c(=O)n2C (stereo not given) :: 97 % of control
4. Cn1c(N)c(-n2[nH]c(=O)n(-c3ccccc3)c2=O)c(=O)n(C)c1=O :: 95 % of control
5. CNCC(O)CC12CCC(c3ccccc31)c1ccccc12 (stereo not given) :: 106 % of control
6. O=C(O)[C@@H]1[C@H]2C[C@H]3c4[nH]c5ccccc5c4CCN3C[C@@H]2CC[C@@H]1O :: 100 % of control
7. CC(=O)NC(Cc1cc(I)c(O)c(I)c1)C(=O)O (stereo not given) :: 94 % of control
8. CCOc1ccc2[nH]c(=S)sc2c1 :: 100 % of control
9. COC1/C=C/OC2(C)Oc3c(C)c(O)c4c(O)c(c5c(nc(-c6ccco6)n5-c5ccccc5)c4c3C2=O)NC(=O)/C(C)=C\C=C\C(C)C(O)C(C)C(O)C(C)C(OC(C)=O)C1C (stereo not given) :: 95 % of control
10. CN(C)C(=O)ONC(=O)c1ccccc1 :: 109 % of control

Hey, just so you know, these numbers are from PubChem BioAssay AID330.
